Item-by-item account of IC50
- tested.target: Tyrosine-protein kinase BTK (Homo sapiens, UniProt Q06187)
- Sequence (Q06187 whole entry): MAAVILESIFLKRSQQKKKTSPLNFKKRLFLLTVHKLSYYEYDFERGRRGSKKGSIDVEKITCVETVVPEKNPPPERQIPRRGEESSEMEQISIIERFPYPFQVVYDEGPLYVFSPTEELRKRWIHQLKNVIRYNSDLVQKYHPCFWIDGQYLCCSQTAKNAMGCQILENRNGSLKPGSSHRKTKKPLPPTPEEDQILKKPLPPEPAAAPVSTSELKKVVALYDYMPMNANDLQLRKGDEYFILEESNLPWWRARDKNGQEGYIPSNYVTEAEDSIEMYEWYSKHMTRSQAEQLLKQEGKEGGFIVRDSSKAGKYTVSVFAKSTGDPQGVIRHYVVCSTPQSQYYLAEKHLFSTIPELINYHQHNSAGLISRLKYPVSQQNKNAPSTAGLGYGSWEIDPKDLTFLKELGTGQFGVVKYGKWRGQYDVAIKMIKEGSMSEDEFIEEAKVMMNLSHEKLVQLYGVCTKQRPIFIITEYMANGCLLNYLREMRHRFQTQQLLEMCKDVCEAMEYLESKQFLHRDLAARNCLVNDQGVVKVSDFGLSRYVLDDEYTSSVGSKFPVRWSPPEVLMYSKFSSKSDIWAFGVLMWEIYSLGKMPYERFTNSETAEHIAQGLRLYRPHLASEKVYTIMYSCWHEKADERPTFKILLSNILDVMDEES

structure.as.smiles	IC50, nM
C=CC(=O)N1CCC[C@@H](n2nc(-c3ccc(NC(=O)C45CCC(CC4)C5)c4c3OCO4)c3c(N)ncnc32)C1	1.48
N#C/C(=C\C1CC1)C(=O)N1CCC[C@@H](n2nc(-c3ccc(NC(=O)c4ccccc4)c4c3OCO4)c3c(N)ncnc32)C1	3
C=CC(=O)N1CCC[C@@H](n2nc(-c3ccc(NC(=O)c4ccc(OC)c(OC)c4)c4c3OCO4)c3c(N)ncnc32)C1	3.4
C=CC(=O)N1CCC[C@@H](n2nc(-c3ccc(NC(=O)c4cccc(Cl)c4)c4c3OCO4)c3c(N)ncnc32)C1	1.8
C=CC(=O)N1CCC[C@@H](n2nc(-c3ccc(NC(=O)c4ccc(C(F)(F)F)cc4)c4c3OCO4)c3c(N)ncnc32)C1	1.8
C=CC(=O)N1CCC[C@@H](n2nc(-c3ccc(NC(=O)c4ccco4)c4c3OCO4)c3c(N)ncnc32)C1	1.48
C=CC(=O)N1CCC[C@@H](n2nc(-c3ccc(NC(=O)c4ccc(N(C)C)cc4)c4c3OCO4)c3c(N)ncnc32)C1	2

* * *

- test.details: Observed MRT(infinity) in Sprague-Dawley rat at 5 mg/kg, iv measured for 720 mins by LC/MS analysis
- Assay type: ADME, organism-based
- condition.details: in vivo

structure.as.smiles	MRT inf
C=CC(=O)N1CCC[C@@H](n2nc(-c3ccc(NC(=O)c4ccc(N(C)C)cc4)c4c3OCO4)c3c(N)ncnc32)C1	9.36 min

* * *

- test.details: Cytotoxicity against HUVEC cells incubated for 48 hrs by MTT assay
- Assay type: toxicity, cell-based
- condition.details: human

structure.as.smiles	IC50 at 48 h, µM
C=CC(=O)N1CCC[C@@H](n2nc(-c3ccc(NC(=O)c4ccc(N(C)C)cc4)c4c3OCO4)c3c(N)ncnc32)C1	27.3

* * *

- test.details: Cytotoxicity against mouse RAW264.7 cells incubated for 48 hrs by MTT assay
- Format: toxicity, cell-based

structure.as.smiles	measurement.unit	IC50 at 48 h
C=CC(=O)N1CCC[C@@H](n2nc(-c3ccc(NC(=O)c4ccc(N(C)C)cc4)c4c3OCO4)c3c(N)ncnc32)C1	µM	19.7

* * *

- test.details: Observed MRT(infinity) in Sprague-Dawley rat at 50 mg/kg, po measured for 720 mins by LC/MS analysis
- Format: ADME, organism-based
- condition.details: in vivo
metric: MRT inf (h)

structure.as.smiles	measurement.unit	measured
C=CC(=O)N1CCC[C@@H](n2nc(-c3ccc(NC(=O)c4ccc(N(C)C)cc4)c4c3OCO4)c3c(N)ncnc32)C1	h	3.4

* * *

- test.details: Cytotoxicity against HUVEC cells incubated for 12 hrs by MTT assay
- Format: toxicity, cell-based
- condition.details: human
metric: IC50 at 12 h

structure.as.smiles	measured
C=CC(=O)N1CCC[C@@H](n2nc(-c3ccc(NC(=O)c4ccc(N(C)C)cc4)c4c3OCO4)c3c(N)ncnc32)C1	50 µM

* * *

- test.details: Cytotoxicity against rat NRK cells incubated for 48 hrs by MTT assay
- Type: toxicity, cell-based

structure.as.smiles	IC50 at 48 h / µM
C=CC(=O)N1CCC[C@@H](n2nc(-c3ccc(NC(=O)c4ccc(N(C)C)cc4)c4c3OCO4)c3c(N)ncnc32)C1	11.8

* * *

- tested.target: Voltage-gated inwardly rectifying potassium channel KCNH2 (Homo sapiens, UniProt Q12809)
- Sequence (Q12809 whole entry): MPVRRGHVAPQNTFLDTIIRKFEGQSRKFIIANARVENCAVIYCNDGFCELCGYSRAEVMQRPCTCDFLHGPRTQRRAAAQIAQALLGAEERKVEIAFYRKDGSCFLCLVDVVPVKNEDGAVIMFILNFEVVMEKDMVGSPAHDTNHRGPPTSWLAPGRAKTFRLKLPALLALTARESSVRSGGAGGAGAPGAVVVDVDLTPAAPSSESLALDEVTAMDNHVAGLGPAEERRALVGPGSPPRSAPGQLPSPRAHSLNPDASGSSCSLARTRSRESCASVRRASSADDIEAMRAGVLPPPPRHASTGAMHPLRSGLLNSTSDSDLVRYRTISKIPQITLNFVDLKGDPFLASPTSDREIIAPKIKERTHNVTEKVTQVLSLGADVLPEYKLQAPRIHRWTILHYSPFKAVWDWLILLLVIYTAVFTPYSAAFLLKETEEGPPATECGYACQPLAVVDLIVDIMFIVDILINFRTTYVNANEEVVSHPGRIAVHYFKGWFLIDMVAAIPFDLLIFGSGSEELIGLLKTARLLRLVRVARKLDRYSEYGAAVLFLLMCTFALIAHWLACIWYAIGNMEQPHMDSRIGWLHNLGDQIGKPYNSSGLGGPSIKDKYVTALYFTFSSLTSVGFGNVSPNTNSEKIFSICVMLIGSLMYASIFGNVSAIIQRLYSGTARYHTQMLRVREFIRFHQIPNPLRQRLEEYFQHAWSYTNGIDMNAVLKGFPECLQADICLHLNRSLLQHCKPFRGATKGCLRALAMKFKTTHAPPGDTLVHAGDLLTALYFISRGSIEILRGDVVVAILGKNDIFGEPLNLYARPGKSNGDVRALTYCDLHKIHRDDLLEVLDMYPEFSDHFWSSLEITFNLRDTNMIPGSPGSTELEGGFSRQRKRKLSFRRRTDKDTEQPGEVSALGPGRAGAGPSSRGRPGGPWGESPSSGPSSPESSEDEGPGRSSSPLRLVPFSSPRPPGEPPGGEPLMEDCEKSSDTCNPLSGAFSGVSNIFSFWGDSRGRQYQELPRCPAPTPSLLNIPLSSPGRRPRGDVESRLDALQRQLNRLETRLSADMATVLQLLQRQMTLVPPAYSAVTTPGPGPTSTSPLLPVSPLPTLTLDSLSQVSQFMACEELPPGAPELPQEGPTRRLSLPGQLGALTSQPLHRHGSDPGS
- test.details: Inhibition of human ERG by patch clamp assay
metric: IC50 (µM)

structure.as.smiles	metric	measured
C=CC(=O)N1CCC[C@@H](n2nc(-c3ccc(NC(=O)c4ccc(N(C)C)cc4)c4c3OCO4)c3c(N)ncnc32)C1	IC50	14.8

* * *

- test.details: Oral bioavailability in Sprague-Dawley rat at 50 mg/kg measured for 720 mins by LC/MS analysis
- Type: ADME, organism-based
- condition.details: in vivo

structure.as.smiles	bioavailability (%)
C=CC(=O)N1CCC[C@@H](n2nc(-c3ccc(NC(=O)c4ccc(N(C)C)cc4)c4c3OCO4)c3c(N)ncnc32)C1	13.2

* * *

- test.details: AUC(all) in Sprague-Dawley rat at 50 mg/kg, po measured for 720 mins by LC/MS analysis
- Format: ADME, organism-based
- Parameters: dose 50 mg/kg, time 720 min, route po
- condition.details: in vivo

structure.as.smiles	AUC at 12 h (ng·h/mL)
C=CC(=O)N1CCC[C@@H](n2nc(-c3ccc(NC(=O)c4ccc(N(C)C)cc4)c4c3OCO4)c3c(N)ncnc32)C1	437

* * *

- test.details: Cytotoxicity against mouse RAW264.7 cells incubated for 12 hrs by MTT assay
- Format: toxicity, cell-based
metric: IC50 at 12 h (µM)

structure.as.smiles	measurement.unit	measured
C=CC(=O)N1CCC[C@@H](n2nc(-c3ccc(NC(=O)c4ccc(N(C)C)cc4)c4c3OCO4)c3c(N)ncnc32)C1	µM	60.8

* * *

- tested.target: UniProtKB P23458
- Sequence (P23458 whole entry): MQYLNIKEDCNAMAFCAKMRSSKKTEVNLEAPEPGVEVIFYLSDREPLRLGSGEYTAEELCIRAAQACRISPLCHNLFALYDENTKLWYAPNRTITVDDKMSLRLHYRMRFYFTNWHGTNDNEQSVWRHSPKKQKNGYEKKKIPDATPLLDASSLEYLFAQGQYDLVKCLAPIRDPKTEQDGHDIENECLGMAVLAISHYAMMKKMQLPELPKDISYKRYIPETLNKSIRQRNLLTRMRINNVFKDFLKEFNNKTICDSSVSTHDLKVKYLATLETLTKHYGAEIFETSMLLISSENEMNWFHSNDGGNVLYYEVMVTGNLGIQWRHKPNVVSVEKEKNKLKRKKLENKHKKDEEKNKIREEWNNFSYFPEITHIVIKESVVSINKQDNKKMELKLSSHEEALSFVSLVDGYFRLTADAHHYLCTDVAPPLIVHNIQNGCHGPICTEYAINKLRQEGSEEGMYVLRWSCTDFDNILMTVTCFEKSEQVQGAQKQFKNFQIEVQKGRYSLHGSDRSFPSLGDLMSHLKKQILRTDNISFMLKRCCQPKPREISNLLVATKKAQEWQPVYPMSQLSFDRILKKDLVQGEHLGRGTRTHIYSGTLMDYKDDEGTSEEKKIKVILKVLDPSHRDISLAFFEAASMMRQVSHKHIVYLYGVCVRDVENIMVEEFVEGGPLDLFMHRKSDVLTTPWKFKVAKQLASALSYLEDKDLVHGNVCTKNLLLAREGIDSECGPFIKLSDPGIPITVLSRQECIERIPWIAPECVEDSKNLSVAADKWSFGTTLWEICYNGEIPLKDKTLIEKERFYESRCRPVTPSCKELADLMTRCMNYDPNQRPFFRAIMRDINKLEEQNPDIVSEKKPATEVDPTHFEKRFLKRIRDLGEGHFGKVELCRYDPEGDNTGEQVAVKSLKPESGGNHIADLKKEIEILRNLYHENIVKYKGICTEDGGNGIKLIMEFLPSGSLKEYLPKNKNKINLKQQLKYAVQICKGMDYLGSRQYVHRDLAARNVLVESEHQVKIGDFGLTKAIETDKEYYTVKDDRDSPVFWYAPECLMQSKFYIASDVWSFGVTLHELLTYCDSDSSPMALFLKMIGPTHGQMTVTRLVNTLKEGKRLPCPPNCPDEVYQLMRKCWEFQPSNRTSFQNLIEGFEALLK
pIC50: −log10 of the molar value.

structure.as.smiles	pIC50
C=CC(=O)N1CCC[C@@H](n2nc(-c3ccc(NC(=O)c4ccc(N(C)C)cc4)c4c3OCO4)c3c(N)ncnc32)C1	< 5.00

* * *

- tested.target: UniProtKB O60674

structure.as.smiles	tested.target	IC50
C=CC(=O)N1CCC[C@@H](n2nc(-c3ccc(NC(=O)c4ccc(N(C)C)cc4)c4c3OCO4)c3c(N)ncnc32)C1	UniProtKB O60674	> 10 µM

* * *

What follows is a record of IC50 for Tyrosine-protein kinase BTK (Homo sapiens, UniProt Q06187).
metric: IC50 (nM)

structure.as.smiles	measurement.unit	measured
C=CC(=O)N1CCC[C@@H](n2nc(-c3ccc(NC(=O)c4ccccc4)c4c3OCO4)c3c(N)ncnc32)C1	nM	1.3
C=CC(=O)N1CCC[C@@H](n2nc(-c3ccc(NC(=O)c4ccc(N(CC)CC)cc4)c4c3OCO4)c3c(N)ncnc32)C1	nM	2.2
C=CC(=O)N1CCC[C@@H](n2nc(-c3ccc(NC(=O)c4cccc(N(C)C)c4)c4c3OCO4)c3c(N)ncnc32)C1	nM	1.02
C=CC(=O)N1CCC[C@@H](n2nc(-c3ccc(NC(=O)c4ccccn4)c4c3OCO4)c3c(N)ncnc32)C1	nM	1.4

* * *

- test.details: Cytotoxicity against human L02 cells incubated for 24 hrs by MTT assay
- Format: toxicity, cell-based

structure.as.smiles	IC50 at 24 h, µM
C=CC(=O)N1CCC[C@@H](n2nc(-c3ccc(NC(=O)c4ccc(N(C)C)cc4)c4c3OCO4)c3c(N)ncnc32)C1	28.2

* * *

- test.details: Cytotoxicity against human L02 cells incubated for 48 hrs by MTT assay
- Assay type: toxicity, cell-based

structure.as.smiles	measurement.unit	IC50 at 48 h
C=CC(=O)N1CCC[C@@H](n2nc(-c3ccc(NC(=O)c4ccc(N(C)C)cc4)c4c3OCO4)c3c(N)ncnc32)C1	µM	9.61

* * *

- test.details: Cytotoxicity against rat NRK cells incubated for 12 hrs by MTT assay
- Type: toxicity, cell-based
metric: IC50 at 12 h (µM)

structure.as.smiles	measurement.unit	measured
C=CC(=O)N1CCC[C@@H](n2nc(-c3ccc(NC(=O)c4ccc(N(C)C)cc4)c4c3OCO4)c3c(N)ncnc32)C1	µM	51

* * *

- test.details: Cmax in Sprague-Dawley rat at 50 mg/kg, po measured for 720 mins by LC/MS analysis
- Assay type: ADME, organism-based
- Set-up: dose 50 mg/kg, time 720 min, route po
- condition.details: in vivo
metric: Cmax (ng/mL)

structure.as.smiles	metric	measurement.unit	measured
C=CC(=O)N1CCC[C@@H](n2nc(-c3ccc(NC(=O)c4ccc(N(C)C)cc4)c4c3OCO4)c3c(N)ncnc32)C1	Cmax	ng/mL	209

* * *

- test.details: Half life in Sprague-Dawley rat at 50 mg/kg, po by LC/MS analysis
- Type: ADME, organism-based
- condition.details: in vivo

structure.as.smiles	half-life (min)
C=CC(=O)N1CCC[C@@H](n2nc(-c3ccc(NC(=O)c4ccc(N(C)C)cc4)c4c3OCO4)c3c(N)ncnc32)C1	154

* * *

- tested.target: Non-receptor tyrosine-protein kinase TYK2 (Homo sapiens)
- Sequence (P29597 whole entry): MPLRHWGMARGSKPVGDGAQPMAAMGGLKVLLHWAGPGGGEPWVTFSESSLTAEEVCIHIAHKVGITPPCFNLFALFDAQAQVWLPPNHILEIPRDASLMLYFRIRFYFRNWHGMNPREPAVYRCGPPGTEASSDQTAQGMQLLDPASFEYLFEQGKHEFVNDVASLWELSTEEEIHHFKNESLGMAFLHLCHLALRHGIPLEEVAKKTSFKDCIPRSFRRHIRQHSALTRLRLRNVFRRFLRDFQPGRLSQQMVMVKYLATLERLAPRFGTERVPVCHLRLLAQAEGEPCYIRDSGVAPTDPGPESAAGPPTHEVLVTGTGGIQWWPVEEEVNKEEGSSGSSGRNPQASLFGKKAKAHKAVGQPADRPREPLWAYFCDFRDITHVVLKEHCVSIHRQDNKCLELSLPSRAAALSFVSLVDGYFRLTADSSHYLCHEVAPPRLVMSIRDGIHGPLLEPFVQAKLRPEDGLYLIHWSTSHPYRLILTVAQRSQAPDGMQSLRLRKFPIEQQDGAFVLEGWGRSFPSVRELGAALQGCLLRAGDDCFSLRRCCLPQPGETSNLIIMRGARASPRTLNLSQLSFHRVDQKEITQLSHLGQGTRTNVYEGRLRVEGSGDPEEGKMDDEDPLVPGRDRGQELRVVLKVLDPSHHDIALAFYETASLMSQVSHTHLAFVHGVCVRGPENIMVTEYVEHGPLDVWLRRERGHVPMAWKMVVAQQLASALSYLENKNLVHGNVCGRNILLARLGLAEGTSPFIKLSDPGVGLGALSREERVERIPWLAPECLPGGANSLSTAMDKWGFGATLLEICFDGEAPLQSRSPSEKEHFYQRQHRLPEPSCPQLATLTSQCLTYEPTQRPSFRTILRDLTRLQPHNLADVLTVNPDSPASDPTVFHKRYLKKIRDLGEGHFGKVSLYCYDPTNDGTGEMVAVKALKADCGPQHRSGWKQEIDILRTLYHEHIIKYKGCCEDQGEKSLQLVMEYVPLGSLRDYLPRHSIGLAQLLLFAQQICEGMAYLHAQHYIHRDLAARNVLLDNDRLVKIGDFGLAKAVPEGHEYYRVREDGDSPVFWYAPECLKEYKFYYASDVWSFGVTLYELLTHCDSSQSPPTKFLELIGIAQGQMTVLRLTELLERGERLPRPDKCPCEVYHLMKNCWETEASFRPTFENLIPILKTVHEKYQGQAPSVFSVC
pIC50: −log10 of the molar value.

structure.as.smiles	pIC50
C=CC(=O)N1CCC[C@@H](n2nc(-c3ccc(NC(=O)c4ccc(N(C)C)cc4)c4c3OCO4)c3c(N)ncnc32)C1	< 5.00

* * *

- test.details: Cytotoxicity against rat NRK cells incubated for 24 hrs by MTT assay
- Type: toxicity, cell-based
metric: IC50 at 24 h (µM)

structure.as.smiles	measured
C=CC(=O)N1CCC[C@@H](n2nc(-c3ccc(NC(=O)c4ccc(N(C)C)cc4)c4c3OCO4)c3c(N)ncnc32)C1	15.7

* * *

- tested.target: Tyrosine-protein kinase BTK (Homo sapiens)
pIC50: −log10 of the molar value.
Values of pIC50 greater than or equal to 8 map to 1; values below map to -1.

structure.as.smiles	tested.target	answer.label
CC#CC(=O)N1CCC[C@@H](n2nc(-c3ccc(NC(=O)c4ccccc4)c4c3OCO4)c3c(N)ncnc32)C1	Tyrosine-protein kinase BTK (Homo sapiens)	-1
C=CC(=O)Nc1cccc(Cn2nc(-c3ccc(NC(=O)c4ccccc4)c4c3OCO4)c3c(N)ncnc32)c1	Tyrosine-protein kinase BTK (Homo sapiens)	-1
C=CC(=O)N1CCC[C@@H](n2nc(-c3ccc(NC(=O)c4ccccc4N(C)C)c4c3OCO4)c3c(N)ncnc32)C1	Tyrosine-protein kinase BTK (Homo sapiens)	1
C=CC(=O)N1CCC[C@@H](n2nc(-c3ccc(NC(=O)c4ccc(OC)cc4)c4c3OCO4)c3c(N)ncnc32)C1	Tyrosine-protein kinase BTK (Homo sapiens)	1
N#CCC(=O)N1CCC[C@@H](n2nc(-c3ccc(NC(=O)c4ccccc4)c4c3OCO4)c3c(N)ncnc32)C1	Tyrosine-protein kinase BTK (Homo sapiens)	-1
CCC(=O)N1CCC[C@@H](n2nc(-c3ccc(NC(=O)c4ccccc4)c4c3OCO4)c3c(N)ncnc32)C1	Tyrosine-protein kinase BTK (Homo sapiens)	-1
